Tested on: PC3
Experiment: Cellular proliferation assay (Alamar blue), PC3
Assay type: cell-based
Details: Homo sapiens, PC-3, PC-3 cells; 10% FCS; 72 h with compound; Alamar blue 24 h; read-out: pIC50 PC-3 (converted)
readout: IC50

COc1ccc2cc1CN(C(C)C)CC(=O)N(C)CCCc1c[nH]c3ncnc(c13)N2 [Compound 37] : > 10 µM

// query Consider the compound CN1CCCN(C)C(=O)COc2cc(ccc2NC(=O)NC2CCCCC2)Nc2ncnc3[nH]cc(c23)C1 [Compound 13] tested on PC3; state its IC50.
// result > 10 µM

// query Consider the compound CN1CCCN(C)C(=O)COc2cc(ccc2OCCN2CCOCC2)Nc2ncnc3[nH]cc(c23)C1 [Compound 126] tested on PC3; state its IC50.
// result 7.94 µM

// query Consider the compound CN1CCCN(C)C(=O)COc2cc(ccc2Cl)Nc2ncnc3c2c(cn3C)C1 [Compound 146] tested on PC3; state its IC50.
// result > 10 µM

* * *

Test system: PC3
Assay: Cellular proliferation assay (Alamar blue), PC3
Format: cell-based
Settings: Homo sapiens, PC-3, PC-3 cells; 10% FCS; 72 h with compound; Alamar blue 24 h; read-out: pIC50 PC-3 (converted)
readout: IC50 (µM)
All answers are understood in µM, so give the number only.

Below are worked cases with known answers.
CN1CCCN(C)C(=O)COc2cc(ccc2OC(F)F)Nc2ncnc3[nH]cc(c23)C1 [Compound 76] : 2
CN1CCCN(C)C(=O)COc2cc(ccc2OCCCNc2ccc(Cl)cc2)Nc2ncnc3[nH]cc(c23)C1 [Compound 142] : 10
CN1CCCN(C)C(=O)COc2cc(ccc2NC(=O)Nc2ccc(Cl)cc2)Nc2ncnc3[nH]cc(c23)C1 [Compound 116] : 6.31
CN1CCCN(C)C(=O)COc2cc(ccc2OCCOc2ccc(Cl)cc2)Nc2ncnc3[nH]cc(c23)C1 [Compound 134] : 6.31

// query Please indicate IC50 recorded for CN1CCCN(C)C(=O)CCc2cccc(c2)Nc2ncnc3[nH]cc(c23)C1 [Compound 21]
// result 3.98

* * *

Test system: H1299
Assay: Cellular proliferation assay (Alamar blue), H1299
Assay type: cell-based
Settings: Homo sapiens, NCI-H1299, H1299 cells; 10% FCS; 72 h with compound; Alamar blue 4 h; read-out: pIC50 H1299 (converted)
readout: IC50

COCCN1CC(=O)N(C)CCCc2c[nH]c3ncnc(c23)Nc2cc(c(OC)c(OC)c2)C1 : > 10 µM

Consider the additional molecule presented here.
// query Please indicate IC50 recorded for "CN1CCN(C)C(=O)COc2cc(ccc2Cl)Nc2ncnc3[nH]cc(c23)C1"
// result > 10 µM

* * *

System: HCT-116
Experiment: Cellular proliferation assay (Alamar blue), HCT-116
Format: cell-based
Details: Homo sapiens; HCT-116 cells; 10% FCS; 72 h with compound; Alamar blue 4 h; read-out: pIC50 HCT-116 (converted)
# note: exactly 2 µM is not below, so it is criterion not met; use criterion met for IC50 strictly under it

O=C1CCCOc2cc(ccc2Cl)Nc2ncnc3[nH]cc(c23)CN2CCN1CC2 [Compound 106] : criterion not met

// query Take the compound CCCOc1ccc2cc1OCC(=O)N(C)CCCN(C)Cc1c[nH]c3ncnc(c13)N2 [Compound 101] and say whether its IC50 is less than 2 µM.
// result criterion met

// query Take the compound COc1ccc2cc1OCC(=O)N[C@@H](C)CN(C)CCCc1c[nH]c3ncnc(c13)N2 [Compound 28] and say whether its IC50 is less than 2 µM.
// result criterion not met

// query Take the compound CN1CCN(C)C(=O)CN(C)C(=O)CCc2cccc(c2)Nc2ncnc3[nH]cc(c23)C1 [Compound 8] and say whether its IC50 is less than 2 µM.
// result criterion not met

// query Take the compound COc1cc2cc(c1OC)OCCCC(=O)N1CCN(CC1)Cc1c[nH]c3ncnc(c13)N2 [Compound 112] and say whether its IC50 is less than 2 µM.
// result criterion not met

// query Take the compound CN1CCCN(C)C(=O)COc2cc(ccc2NC(=O)Nc2cccc(Cl)c2)Nc2ncnc3[nH]cc(c23)C1 [Compound 67] and say whether its IC50 is less than 2 µM.
// result criterion met

// query Take the compound CN1CCCN(C)C(=O)COc2cc(ccc2NC(=O)NC2CCCC2)Nc2ncnc3[nH]cc(c23)C1 [Compound 66] and say whether its IC50 is less than 2 µM.
// result criterion not met

// query Take the compound COCCOCCOc1ccc2cc1OCC(=O)N(C)CCCN(C)Cc1c[nH]c3ncnc(c13)N2 [Compound 128] and say whether its IC50 is less than 2 µM.
// result criterion met

// query Take the compound COc1ccc2cc1OCCCCC(=O)N(C)CCN(C)Cc1c[nH]c3ncnc(c13)N2 [Compound 41] and say whether its IC50 is less than 2 µM.
// result criterion not met

// query Take the compound COc1ccc2cc1OCCCCCC(=O)N(C)CCCN(C)Cc1c[nH]c3ncnc(c13)N2 [Compound 18] and say whether its IC50 is less than 2 µM.
// result criterion not met

// query Take the compound CN1CCN(C)C(=O)CCc2cccc(c2)Nc2ncnc3[nH]cc(c23)C1 [Compound 20] and say whether its IC50 is less than 2 µM.
// result criterion not met

* * *

Test system: H1299
Test: Cellular proliferation assay (Alamar blue), H1299
Type: cell-based
Conditions: Homo sapiens, NCI-H1299, H1299 cells; 10% FCS; 72 h with compound; Alamar blue 4 h; read-out: pIC50 H1299 (converted)
Here, each record is paired with measured IC50 data.
All answers are understood in µM, so give the number only.

CCOCCCOc1ccc2cc1OCC(=O)N(C)CCCN(C)Cc1c[nH]c3ncnc(c13)N2 [Compound 130] : 1.58
CN1CCCN(C)C(=O)COc2cc(ccc2OCCN(C)c2nccs2)Nc2ncnc3[nH]cc(c23)C1 [Compound 157] : 1.26

// query Please indicate IC50 recorded for COCCCOc1ccc2cc1OCC(=O)N(C)CCCN(C)Cc1c[nH]c3ncnc(c13)N2 [Compound 132]
// result 3.98

// query Please indicate IC50 recorded for COc1ccc(OCCOc2ccc3cc2OCC(=O)N(C)CCCN(C)Cc2c[nH]c4ncnc(c24)N3)cc1 [Compound 155]
// result 0.126

* * *

Here, each record is paired with measured log10 IC50 data.
Test system: U87-MG
Assay: Cellular proliferation assay (Alamar blue), U87-MG
Format: cell-based
Conditions: Homo sapiens, U-87 MG; U87-MG cells; 10% FCS; 72 h with compound; Alamar blue 6 h; read-out: pIC50 U87MG (converted)
Recall that a logarithmic scale is used here: each number is log10 of IC50 in µM.

Below are worked cases with known answers.
CN1CCCN(C)C(=O)COc2cc(ccc2OCCN2CCOCC2)Nc2ncnc3[nH]cc(c23)C1 [Compound 126] : 0.80
CN1CCN(C)C(=O)COc2cc(ccc2Cl)Nc2ncnc3[nH]cc(c23)C1 [Compound 98] : 0.80
CN1CCCN(C)C(=O)COc2cc(ccc2OCCN(C)c2nccs2)Nc2ncnc3[nH]cc(c23)C1 [Compound 157] : 0.00
COCCN(CCOc1ccc2cc1OCC(=O)N(C)CCCN(C)Cc1c[nH]c3ncnc(c13)N2)Cc1ccccc1 [Compound 141] : 0.40
CN1CCCCN(C)C(=O)COc2cc(ccc2OCC(=O)Nc2ccc(Cl)cc2)Nc2ncnc3[nH]cc(c23)C1 [Compound 133] : 0.40
COc1ccc2cc1OCC(=O)NCC1CN(Cc3c[nH]c4ncnc(c34)N2)C1 [Compound 88] : 1.00
CC(C)OCCOc1ccc2cc1OCC(=O)N(C)CCCN(C)Cc1c[nH]c3ncnc(c13)N2 [Compound 131] : 0.30
COc1ccc2cc1OCCNC(=O)CN(C)Cc1c[nH]c3ncnc(c13)N2 [Compound 22] : 0.40
COCCOc1ccc2cc1OCC(=O)N(C)CCCN(C)Cc1c[nH]c3ncnc(c13)N2 [Compound 119] : 0.20
CN1CCCN(C)C(=O)COc2cc(ccc2NC(=O)Nc2ccc(Cl)cc2)Nc2ncnc3[nH]cc(c23)C1 [Compound 116] : 0.60

// query Consider the compound CN1CCCN(C)C(=O)COc2cc(ccc2OCCN2CCCCC2)Nc2ncnc3[nH]cc(c23)C1 [Compound 136] tested on U87-MG; state its log10 IC50.
// result 0.20

// query Consider the compound CN1CCCN(C)C(=O)COc2cc(ccc2OCCNc2nccs2)Nc2ncnc3[nH]cc(c23)C1 [Compound 156] tested on U87-MG; state its log10 IC50.
// result 0.10

// query Consider the compound CN1CCCN(C)C(=O)COc2cccc(c2)Nc2ncnc3[nH]cc(c23)C1 [Compound 120] tested on U87-MG; state its log10 IC50.
// result -0.10

// query Consider the compound CCN(CCOC)CCOc1ccc2cc1OCC(=O)N(C)CCCN(C)Cc1c[nH]c3ncnc(c13)N2 [Compound 77] tested on U87-MG; state its log10 IC50.
// result 0.50

// query Consider the compound CN1CCCN(C)C(=O)CCc2cccc(c2)Nc2ncnc3[nH]cc(c23)C1 [Compound 21] tested on U87-MG; state its log10 IC50.
// result 0.30

Reference source for all entries: patent US8318731B2
